measurement_description: Plasma pharmacokinetics (HPLC-MS/MS) of crizotinib, PD-0325901 and PD-0315209 in patients
Type: in vivo, human
settings: human, plasma, po; combination treatment, 4 dose levels; read-out: Time of peak plasma concentrations after oral dosing
readout_name: Tmax

[[record]]
smi = "O=C(NOC[C@H](O)CO)c1ccc(F)c(F)c1Nc1ccc(I)cc1F"
result = "1.02 to 2.27 h"


Shift focus to the following entry.
Form field: reported Tmax of C[C@@H](Oc1cc(-c2cnn(C3CCNCC3)c2)cnc1N)c1c(Cl)ccc(F)c1Cl 2.76 to 5.21 h

# credit: paper PMC11947101
